meta.source: patent US8846912B2

Reported IC50 values are given for each entry in this list.
# TGT: HDAC
# METHOD DESCRIPTION: HDAC fluorimetric enzyme assay (HeLa nuclear extract)

Solved entries (count: 4):
SMILES REPRESENTATION	IC50
COc1cc2ncnc(Nc3ccc(F)c(Cl)c3)c2cc1NC(=O)CCCCCCC(=O)NO	< 100 nM
COc1cc2ncnc(Nc3ccc(F)c(Cl)c3)c2cc1OCCOc1ccc(/C=C/C(=O)NO)cc1	100 to 1000 nM
COc1cc2ncnc(N[C@@H](C)c3ccccc3)c2cc1OCCCCCCC(=O)NO	< 100 nM
C#Cc1cccc(Nc2ncnc3cc(OC)c(OCC(=O)NO)cc23)c1	> 10000 nM

// below: IC50 requested for another compound
Query: Query (compound): COc1cc2ncnc(Nc3ccc(F)c(Cl)c3)c2cc1OCCCC(=O)NO ; field requested: IC50
Reply: > 10000 nM
